Experiment: Single dose PK in healthy subjects (Cohorts 1, 2, S1 and S2), plasma
Format: in vivo, human
Conditions: human, plasma, intravenous, 180 mg; 0.5 hr; read-out: Plasma concentration, Median
measurement.type: concentration at 0.5 hr (ng/mL)
Your answer is read as ng/mL, so omit the unit and give the number.

Note down concentration at 0.5 hr recorded for COC(=O)N1CCC[C@H](NS(C)(=O)=O)[C@@H]1CO[C@H]1CC[C@@H](c2ccccc2)CC1 [Compound A]
170

* * *

Experiment: Plasma concentrations in healthy subjects (Cohort 4)
Type: in vivo
Details: human, intravenous, 112 mg, 0.5 hr, Mean
measurement.type: concentration at 0.5 h
Entry format: amount then unit.

Note down concentration at 0.5 h recorded for COC(=O)N1CCC[C@H](NS(C)(=O)=O)[C@@H]1CO[C@H]1CC[C@@H](c2ccccc2)CC1 [Compound A]
119 ng/mL
